observed-property: melting point

These solved cases illustrate the format of a correct answer.
line-notation: CC(C)Oc1ccc(NCCC2(O)CCN(CCc3ccc(C#N)cc3)CC2)cc1.Cl.Cl
observed-property: melting point
meas-value: 197.3 °C (dec.)

line-notation: CC(C)Oc1ccc(N(C)CC2(O)CCN(CCc3ccc(C#N)cc3)CC2)cc1.Cl.Cl
observed-property: melting point
meas-value: 202.8 to 203.4 °C

// field: melting point; key: CC(C)Oc1ccc(N(C)CCC2(O)CCN(CCc3ccccc3)CC2)cc1.Cl.Cl ; value = 189.7 to 192.6 °C

// CC(C)Oc1ccc(N(C)CCC2(O)CCN(CCc3ccc(F)cc3)CC2)cc1.Cl.Cl : melting point value = 252 °C (dec.)

Form: molecule = CC(C)Oc1ccc(N(C)CCC2(O)CCN(CCc3cccs3)CC2)cc1.Cl.Cl ; melting point = 203 to 204.5 °C

// CC(C)Oc1ccc(N(C)CCC2(O)CCN(CCc3ccoc3)CC2)cc1.Cl.Cl : melting point value = 202.6 to 203.9 °C

Note to self: melting point recorded for CCOc1ccc(N(C)CCC2(O)CCN(CCc3ccc(C#N)cc3)CC2)cc1.Cl.Cl was 214 to 215.2 °C

----------
Tested on: formalin-induced nociceptive response
protocol: Formalin-induced nociceptive response in rats
Format: in vivo, rat
test-settings: Rattus norvegicus, po, 10 min; 10 mg/kg orally 30 minutes before formalin; first 10 minutes; read-out: Response inhibition, 1st phase
Counter-ions that a name gives are not always drawn.
observed-property: inhibition in vivo at 10 mg/kg (%)
// return numeric value only (unit: %, not printed)

compound: CC(C)Oc1ccc(N(C)CCC2(O)CCN(CCc3ccc(C#N)cc3)CC2)cc1.Cl.Cl [Example 51, dihydrochloride]
meas-value: 46
--
compound: CC(C)Oc1ccc(N(C)CCC2(O)CCN(CCc3ccoc3)CC2)cc1.Cl.Cl [Example 84, dihydrochloride]
meas-value: 23

Consider CC(C)Oc1ccc(N(C)CCC2(O)CCN(CCc3ccccc3)CC2)cc1.Cl.Cl [Example 50, dihydrochloride] . Its measured inhibition in vivo at 10 mg/kg is 44

The compound CC(C)Oc1ccc(N(C)CCC2(O)CCN(CCc3ccc(F)cc3)CC2)cc1.Cl.Cl [Example 55, dihydrochloride] showed inhibition in vivo at 10 mg/kg equal to 30

Per the records, this compound ( CCOc1ccc(N(C)CCC2(O)CCN(CCc3ccc(C#N)cc3)CC2)cc1.Cl.Cl [Example 90, dihydrochloride] ) has inhibition in vivo at 10 mg/kg equal to 55

Measured inhibition in vivo at 10 mg/kg of CC(C)Oc1ccc(N(C)CCC2(O)CCN(CCc3cccs3)CC2)cc1.Cl.Cl [Example 86, dihydrochloride] : 19

Just so you know, measured inhibition in vivo at 10 mg/kg for CC(C)Oc1ccc(N(C)CCC2(O)CCN(CCc3cccc(F)c3)CC2)cc1 [Example 58, dihydrochloride] came out at 29

inhibition in vivo at 10 mg/kg reported for this compound CC(C)Oc1ccc(N(C)CCC2(O)CCN(CCc3ccc(Cl)cc3)CC2)cc1 [Example 60, dihydrochloride] : 61

Consider CC(C)Oc1ccc(N(C)CCC2(O)CCN(CCc3ccccc3C(F)(F)F)CC2)cc1 [Example 65, dihydrochloride] . Its measured inhibition in vivo at 10 mg/kg is 93

Entry under test: CC(C)Oc1ccc(N(C)CCC2(O)CCN(CCc3ccc([N+](=O)[O-])cc3)CC2)cc1 [Example 56, dihydrochloride] . Its inhibition in vivo at 10 mg/kg was 40

Record CC(C)Oc1ccc(N(C)CC2(O)CCN(CCc3ccc(C#N)cc3)CC2)cc1.Cl.Cl [Example 96, dihydrochloride] . Reported inhibition in vivo at 10 mg/kg: 74
